- Tested on: HIV-1 IIIB
- Experiment: HOS HIV-1 infectivity assay
- Type: cell-based
- Details: Human immunodeficiency virus 1, IIIB; as determined by the infectivity assay; strain not stated in Table 2; read-out: Activity Level
pIC50: −log10 of the molar value.
Measured pIC50 accompanies every entry in the list below.

1) CN(Cc1nc2ccccc2n1CCN1CCCCC1)C1CCCc2cccnc21 (centres unmarked)	6.30 to 7.00
2) CN(Cc1nc2ccccc2n1CCc1cn(C)cn1)C1CCCc2cccnc21 (centres unmarked)	5.00 to 6.30
3) CN(Cc1nc2ccccc2n1CC(=O)NCCN)C1CCCc2cccnc21 (centres unmarked)	6.30 to 7.00
4) CN(C)Cc1cccc(Cn2c(CN(C)C3CCCc4cccnc43)nc3ccccc32)c1 (centres unmarked)	6.30 to 7.00

Then this compound:
Kindly note the recorded pIC50 for CN(Cc1nc2ccccc2n1CC1CCNC1)C1CCCc2cccnc21 (centres unmarked) , which is > 7.00

###

- Tested on: HIV-1 IIIB
- Experiment: HOS HIV-1 infectivity assay
- Format: cell-based
- Details: Human immunodeficiency virus 1, IIIB; as determined by the infectivity assay; strain not stated in Table 2; read-out: Activity Level
Quick reference: IC50 of the listed items.

1. CC(C)CN1CCC[C@H](Cn2c(CN(C)[C@H]3CCCc4cccnc43)nc3ccccc32)C1 [Example 44]	< 100 nM

Entry CN(Cc1nc2ccccc2n1C/C=C/CN)C1CCCc2cccnc21 (stereo not drawn) [Example 58] ; IC50 = 100 to 500 nM

For CC(C)N1CCC[C@@H]1CN1CCC[C@H](Cn2c(CN(C)[C@H]3CCCc4cccnc43)nc3ccccc32)C1 [Example 109] the molecule record lists IC50 as 100 to 500 nM

Sample CC(C)CCN(Cc1nc2ccccc2n1CCCN)C1CCCc2cccnc21 (stereo not drawn) [Example 22] ; IC50 observed: 100 to 500 nM

IC50 measured on CN(Cc1nc2ccccc2n1Cc1ccccn1)C1CCCc2cccnc21 (stereo not drawn) [Example 26] = 500 to 10000 nM

// field: IC50; key: CN(Cc1nc2ccccc2n1CCc1ccccn1)C1CCCc2cccnc21 (stereo not drawn) [Example 37] ; value = 100 to 500 nM

# molecule CN(Cc1nc2ccccc2n1CC(=O)NCCCN)C1CCCc2cccnc21 (stereo not drawn) [Example 30] ; its IC50 = 100 to 500 nM

What the record says about CN(Cc1nc2ccccc2n1CCc1cccnc1)C1CCCc2cccnc21 (stereo not drawn) [Example 36] : IC50 is 100 to 500 nM

The molecule CCN(Cc1nc2ccccc2n1CCCN)C1CCCc2cccnc21 (stereo not drawn) [Example 20] showed IC50 equal to < 100 nM

###

- Test system: HIV-1 gp160 (HXB2 strain) mediated cell/cell fusion
- Experiment: Cell/cell fusion assay (HOS hCXCR4/hCCR5/hCD4/pHIV-LTR-luciferase cells with HEK-293 cells expressing HIV-1 tat, rev, gp160), luciferase readout
- Format: cell-based
- Details: Homo sapiens, HEK293, 24 h, read-out: Fusion assay (pIC50) (converted)
Threshold check on IC50: strictly below 200 nM is 1 (yes); on or above 200 nM is 0 (no).

Sample answers from the record:
1. CN(Cc1nc2ccccc2n1Cc1ccc(CNCc2ccccn2)cc1)C1CCCc2cccnc21 (stereo not shown)	0 (no)
2. CN1CCCC(Cn2c(CN(C)C3CCCc4cccnc43)nc3ccccc32)C1 (stereo not shown)	1 (yes)
3. NCCCn1c(CNC2CCCc3cccnc32)nc2ccccc21 (stereo not shown)	0 (no)
4. CN1CCC(n2c(CN(C)C3CCCc4cccnc43)nc3ccccc32)CC1 (stereo not shown) [Example 11i]	1 (yes)

Exercise: Lab log: compare recorded IC50 with 200 nM; is it strictly lower for CN(Cc1nc2ccccc2n1CCCNCc1ccccn1)C1CCCc2cccnc21 (stereo not shown) ?
Solution: 1 (yes)

###

- Test system: HIV-1 IIIB
- Experiment: HOS HIV-1 infectivity assay
- Type: cell-based
- Details: Human immunodeficiency virus 1, IIIB; as determined by the infectivity assay; strain not stated in Table 2; read-out: Activity Level
- Method: Compounds were profiled against two HIV-1 viruses, the M-tropic (CCR5 utilizing) Ba-L strain and the T-tropic (CXCR4 utilizing) IIIB strain. Both viruses were propagated in human peripheral blood lymphocytes. […] Following this incubation the endpoint for the virally infected cultures was quantified following addition of Steady-Glo Luciferase assay system reagent (Promega, Madison, Wis.). […] All luminescent readouts are performed on a Topcount luminescence detector (Packard, Meridien, Conn.).
Measured attribute: IC50

Consider the worked cases shown below.
1) CN1CCC[C@H](Cn2c(CN(C)[C@@H]3CCCc4cccnc43)nc3ccccc32)C1 [Example 76]	100 to 500 nM
2) CN1CCC[C@H](Cn2c(CN(CCCO)[C@H]3CCCc4cccnc43)nc3ccccc32)C1 [Example 96]	< 100 nM

For CN(C)CC#CCn1c(CN(C)C2CCCc3cccnc32)nc2ccccc21 (stereo not drawn) [Example 56] on HIV-1 IIIB, measured IC50 was 100 to 500 nM

Sample CN(Cc1nc2ccccc2n1C[C@H]1CCCN(C(=N)N)C1)[C@H]1CCCc2cccnc21 [Example 89] , system: HIV-1 IIIB. Its IC50 is < 100 nM

Considering CN1CCN(CCCn2c(CN(C)C3CCCc4cccnc43)nc3ccccc32)CC1 (stereo not drawn) [Example 9] , its IC50 with HIV-1 IIIB was recorded as < 100 nM

Assay HIV-1 IIIB, sample CN(Cc1nc2ccccc2n1CC(=O)NCc1ccccn1)C1CCCc2cccnc21 (stereo not drawn) [Example 33] , IC50 read: 100 to 500 nM

###

- Test system: HIV-1 gp160 (HXB2 strain) mediated cell/cell fusion
- Experiment: Cell/cell fusion assay (HOS hCXCR4/hCCR5/hCD4/pHIV-LTR-luciferase cells with HEK-293 cells expressing HIV-1 tat, rev, gp160), luciferase readout
- Type: cell-based
- Details: Homo sapiens, HEK293, 24 h, read-out: Fusion assay (pIC50) (converted)
Measured attribute: IC50 (nM)
Write the answer as a number in nM, unit excluded.

As a guide, the following entries are already answered.
1) CCN(Cc1nc2ccccc2n1CCCN)C1CCCc2cccnc21 (centres unmarked)	56.2
2) CN(Cc1nc2ccccc2n1CCN1CCOCC1)C1CCCc2cccnc21 (centres unmarked)	200
3) CC(C)CCN(Cc1nc2ccccc2n1CCCN)C1CCCc2cccnc21 (centres unmarked)	158
4) CN(C)CCCCCn1c(CN(C)C2CCCc3cccnc32)nc2ccccc21 (centres unmarked)	324
5) CN(Cc1nc2ccccc2n1CC1CCNCC1)C1CCCc2cccnc21 (centres unmarked)	240
6) CN1CCCCC1CCn1c(CN(C)C2CCCc3cccnc32)nc2ccccc21 (centres unmarked) [Example 23e]	38

Reported IC50 for CN(Cc1nc2ccccc2n1Cc1cccnc1)C1CCCc2cccnc21 (centres unmarked) was 1780

compound CN1CCC(Cn2c(CN(C)C3CCCc4cccnc43)nc3ccccc32)C1 (centres unmarked) , IC50 observed: 74.1

Quick note, IC50 for CN(Cc1nc2ccccc2n1CCN)C1CCCc2cccnc21 (centres unmarked) landed at 316

# IC50 of CN(Cc1nc2ccccc2n1CCN1CCCCC1)C1CCCc2cccnc21 (centres unmarked) = 138

Lab note: NCCCn1c(CN(Cc2ccccc2)C2CCCc3cccnc32)nc2ccccc21 (centres unmarked) gave IC50 of 1320

###

- System: HIV-1 IIIB
- Experiment: HOS HIV-1 infectivity assay
- Type: cell-based
- Details: Human immunodeficiency virus 1, IIIB; as determined by the infectivity assay; strain not stated in Table 2; read-out: Activity Level
- Description: Compounds were profiled against two HIV-1 viruses, the M-tropic (CCR5 utilizing) Ba-L strain and the T-tropic (CXCR4 utilizing) IIIB strain. Both viruses were propagated in human peripheral blood lymphocytes. […] Following this incubation the endpoint for the virally infected cultures was quantified following addition of Steady-Glo Luciferase assay system reagent (Promega, Madison, Wis.). […] All luminescent readouts are performed on a Topcount luminescence detector (Packard, Meridien, Conn.).
pIC50: −log10 of the molar value.
Each record here notes measured pIC50.

Sample records with pIC50:
1) CN(Cc1nc2ccccc2n1C[C@H]1CCCN(Cc2ccccn2)C1)[C@H]1CCCc2cccnc21	> 7.00
2) CN1CC(Cn2c(CN(C)C3CCCc4cccnc43)nc3ccccc32)C1 (stereo not drawn) [Example 10e]	> 7.00
3) CN(C)CC(C)(C)Cn1c(CN(C)C2CCCc3cccnc32)nc2ccccc21 (stereo not drawn)	> 7.00
4) CC(C)N(Cc1nc2ccccc2n1CCCN(C)C)C1CCCc2cccnc21 (stereo not drawn)	> 7.00
5) CN(C)CCCCCCn1c(CN(C)C2CCCc3cccnc32)nc2ccccc21 (stereo not drawn)	6.30 to 7.00
6) CN(Cc1nc2ccccc2n1CCCN)C1CCCc2cccnc21 (stereo not drawn) [Example 15b]	> 7.00

Now consider a different compound.
Considering CN1CCCCC1CCn1c(CN(C)C2CCCc3cccnc32)nc2ccccc21 (stereo not drawn) [Example 23e] , its pIC50 with HIV-1 IIIB was recorded as > 7.00

Source: patent US20080096861A1
